- Tested on: rat primary cortical neurons
- assayProtocol: Neuroprotection against βAP 25-35 in rat primary cortical neurons (LIVE/DEAD kit)
- testContext: Rattus norvegicus, Primary cortical neuron, presence of GSH
- Method: Primary Rat Cortical Culture: Primary neuronal cultures were prepared according to the method used by Chandler et al. Alcoholism: Clinical and Experimental Research, 17 (1993) 54-60. Once treatments were added, primary cultures were incubated for an additional 24 h and viability determined using the LIVE/DEAD® viability/cytotoxicity kit (Molecular Probes, Eugene, Oreg.) according to manufacturer's instructions. […]
parameterMeasured: EC50 (nM)

> print(dat)
                                   compound  recordedmeasurement
1  C[C@]12CC[C@@H]3c4ccc(O)cc4CC[C@H]3[C@@H]1CC[C@@H]2O [17β-estradiol]                  4.3

====

- System: SK-N-SH cells
- assayProtocol: Live cell number of SK-N-SH cells with βAP 25-35 induced toxicity (trypan blue exclusion), 17β-estradiol and anti-oxidants
- testContext: βAP 25-35 (20 μM) + TRT (anti-oxidant), 72 h
Returns: string. Value is y if measured live cell number is below 400, and n if it is greater than or equal to it.

> print(dat)
                                   molecule  assignedlabel
1  CC(=O)Oc1c(C)c(C)c2c(c1C)CCC(C)(CCCC(C)CCCC(C)CCCC(C)C)O2 (stereo not drawn) [Tocopherol, α-tocopherol acetate]              n
2  O=C1O[C@H]([C@@H](O)CO)C(O)=C1O [Ascorbic Acid, ascorbic acid]              y
3  N[C@@H](CCC(=O)N[C@@H](CS)C(=O)NCC(=O)O)C(=O)O [GSH, glutathione]              y

Every entry's value here was drawn from patent US5972923A.
